assay: qHTS assay to identify small molecule that activate the aryl hydrocarbon receptor (AhR) signaling pathway - cell viability counter screen (AID 743086); conditions: HepG2-AhR-luc viability, CellTiter-Fluor, 24 h; series mostly up to 70.3 µM; further: nearly all actives have a fitted effect of over 45% in size
Inconclusive results are not listed. The source made the active and inactive calls. The call rests on the fitted dose curve; in most records, active means well fitted cell-killing curve with a large enough effect in the repeat runs; inconclusive means weak or mixed curves, or effect the other way; inactive means flat fitted curve, though single readings scatter.
In this exercise, the only acceptable responses are True (active), False (inactive)

// below: answered molecules
# molecule, cat
rows = [
    ("CC[C@H]1OC(=O)C[C@@H](O)[C@H](C)[C@@H](O[C@@H]2O[C@H](C)[C@@H](O[C@H]3C[C@@](C)(O)[C@@H](O)[C@H](C)O3)[C@H](N(C)C)[C@H]2O)[C@@H](CC=O)C[C@@H](C)C(=O)/C=C/C(C)=C/[C@@H]1CO[C@@H]1O[C@H](C)[C@@H](O)[C@@H](OC)[C@H]1OC", "False"),
    ("CC(C)c1ncc([N+](=O)[O-])n1C", "False"),
    ("CCC(=O)OC(OP(=O)(CCCCc1ccccc1)CC(=O)N1C[C@H](C2CCCCC2)C[C@H]1C(=O)O)C(C)C (stereo partly drawn)", "False"),
    ("CC(=O)Oc1cc(C(F)(F)F)ccc1C(=O)O", "False"),
    ("CCCCCCCC[N+](C)(C)CCCCCCCC", "False"),
    ("CC(C)c1ccc2sc3ccccc3c(=O)c2c1", "False"),
    ("O=C(O)/C=C/C(O)c1ccc(Cl)cc1 (stereo not drawn)", "False"),
    ("CCC(O)c1ccccc1 (stereo not drawn)", "False"),
]

Query :: Recorded test outcome, item CCCn1c(=O)[nH]c(=O)c2[nH]cnc21
Result :: False

Query :: Recorded test outcome, item CN(C)CCc1c[nH]c2ccc(Cn3cncn3)cc12
Result :: False

Query :: Recorded test outcome, item COc1cc2c(cc1O)CCN[C@]21CS[C@@H]2c3c(OC(C)=O)c(C)c4c(c3[C@H](COC1=O)N1[C@@H]2[C@H]2c3c(cc(C)c(OC)c3O)C[C@@H]([C@@H]1O)N2C)OCO4
Result :: True

Query :: Recorded test outcome, item NCC1CCC(C(=O)O)CC1 (stereo not drawn)
Result :: False

Query :: Recorded test outcome, item N[C@@H](Cc1ccc(O)c(O)c1)C(=O)O
Result :: False
